target: Q89M-hSR (Homo sapiens, UniProt Q9GZT4, Q89M); construct: hexa-His; made in house; host or cells: E. coli BL21 CodonPlus (DE3)-RIL with GroEL/GroES; assay: Activation of L-Ser dehydratase activity by ATP; type: biochemical; conditions: saturating 300 mM L-Ser, read-out: half-maximal activation (EC50) by ATP, L-Ser dehydratase activity
Sequence (Q9GZT4 whole entry Q89M): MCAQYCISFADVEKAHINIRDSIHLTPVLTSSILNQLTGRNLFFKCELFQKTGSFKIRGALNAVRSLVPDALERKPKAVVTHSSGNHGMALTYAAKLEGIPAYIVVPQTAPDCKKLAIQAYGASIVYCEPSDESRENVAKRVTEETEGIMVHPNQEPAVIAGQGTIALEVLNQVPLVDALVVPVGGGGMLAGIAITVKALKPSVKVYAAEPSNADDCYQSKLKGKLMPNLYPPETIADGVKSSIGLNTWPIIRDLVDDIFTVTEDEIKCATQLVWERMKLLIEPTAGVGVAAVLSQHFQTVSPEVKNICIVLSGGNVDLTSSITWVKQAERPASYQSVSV
METRIC: pEC50
Scale: negative log10 of molar concentration, which is what pEC50 denotes.

Input line: GET /values?readout=pEC50&item= Nc1ncnc2c1ncn2[C@@H]1O[C@H](COP(=O)(O)OP(=O)(O)OP(=O)(O)O)[C@@H](O)[C@H]1O
Output line: 4.68

---

target: Q89M-hSR (Homo sapiens, UniProt Q9GZT4, Q89M); construct: hexa-His; made in house; host or cells: E. coli BL21 CodonPlus (DE3)-RIL with GroEL/GroES; test: Fluorimetric titrations (PLP fluorescence emission); format: binding; conditions: Q89M-hSR, ligand 2 Glycine (1 mM)
METRIC: Kd (µM)
The figure you give is taken to be in µM; do not add the unit.

Input line: GET /values?readout=Kd&item= Nc1ncnc2c1ncn2[C@@H]1O[C@H](COP(=O)(O)OP(=O)(O)OP(=O)(O)O)[C@@H](O)[C@H]1O
Output line: 48
